Reported values of MIC for individual entries
# Test system: Escherichia coli P-5101
# method: In vitro antibacterial activity (MIC), Escherichia coli P-5101
# Type: cell-based
# recorded conditions: P5101; Escherichia coli P-5101; nutrient broth pH 7.0, 37° C., 48 hours; read-out: MIC
# Description: (1) In vitro antibacterial activity against 9 strains of bacteria (Gram-positive bacteria: 4 strains, Gram-negative bacteria: 5 strains) The test compounds were dissolved in distilled water at a concentration of 1 mg/ml with equimolar NaOH. Then graded concentrations (300, 100, 30, 10, 3 μg/ml, etc.) were made by serial dilution with distilled water. […] The minimal inhibitor concentration (MIC) was defined as the lowest concentration in which no visible growth of the bacteria was detected.

[
  {
    "record smiles": "CCn1cc(C(=O)O)c(=O)c2cnc(N3CCN(Cc4ccccc4)CC3)nc21",
    "MIC (µg/mL)": 10
  },
  {
    "record smiles": "CCn1cc(C(=O)O)c(=O)c2cnc(N3CCCC3)nc21",
    "MIC (µg/mL)": 10
  },
  {
    "record smiles": "CCn1cc(C(=O)O)c(=O)c2cnc(N3CCN(Cc4ccc(Cl)cc4)CC3)nc21",
    "MIC (µg/mL)": 30
  },
  {
    "record smiles": "CCn1cc(C(=O)O)c(=O)c2cnc(N3CCN(Cc4ccc(OC)cc4)CC3)nc21",
    "MIC (µg/mL)": 10
  }
]

Sourced from patent US4125615A
